Values were extracted from patent US6004952A.

Test system: M. gallisepticum
assay text: MIC, liquid dilution method, Mycoplasma gallisepticum
condition description: Mycoplasmoides gallisepticum
metric name: log10(MIC) (log10 of the value in µg/mL)
Log scale reminder: MIC in µg/mL, then log10 taken.

Worked examples, 8 compounds total:
compound	log10(MIC)
CCCCCc1cccc(OCOC)c1C1=NC(C2SCC(C(O)C(C)(C)C3=NC(C)(C(=O)OCOC)CS3)N2C)CS1 (centres unmarked)	0.19
CCCCCc1cccc(O)c1C1=NC(C2SCC(C(O)C(C)(C)C3=NC(C)(C(=O)NCCO)CS3)N2C)CS1 (centres unmarked)	-0.11
CCCCCc1cccc(O)c1C1=NC(C2SCC(C(O)C(C)(C)C3=NC(C)(C(N)=O)CS3)N2C)CS1 (centres unmarked)	-0.41
CCCCCc1cccc(O)c1C1=NC(C2SCC(C(O)C(C)(C)C3=NC(C)(C(=O)OC)CS3)N2C)CS1 (centres unmarked)	-0.70
CCCCCc1cccc(O)c1C1=NC(C2SCC(C(O)C(C)(C)C3=NC(C)(CO)CS3)N2C)CS1 (centres unmarked)	-0.41
CCCCCc1cccc(O)c1C1=NC(C2SCC(C(O)C(C)(C)C3=NC(C)(C(=O)OCOC)CS3)N2C)CS1 (centres unmarked)	-1.00
CCCCCc1cccc(O)c1C1=NC(C2SCC(C(OCOC)C(C)(C)C3=NC(C)(C(=O)OCOC)CS3)N2C)CS1 (centres unmarked)	0.80
CCCCCc1cccc(OC)c1C1=NC(C2SCC(C(O)C(C)(C)C3=NC(C)(C(=O)O)CS3)N2C)CS1 (centres unmarked)	0.19

Query :: So what's the measured log10(MIC) for this one? CCCCCc1cccc(O)c1C1=NC(C2SCC(C(O)C(C)(C)C3=NC(C)(C(=O)NC(C)C(=O)OC)CS3)N2C)CS1 (centres unmarked)
Result :: -0.41

Query :: So what's the measured log10(MIC) for this one? CCCCCc1cccc(O)c1C1=NC(C2SCC(C(O)C(C)(C)C3=NC(C)(C(=O)O)CS3)N2C)CS1 (centres unmarked)
Result :: -0.70
